System: HS 578T
experimentalDetails: NCI-60 screen, Breast Cancer HS 578T
Format: cell-based, human
conditionParameters: 10^−5 M one dose
Growth of Cells (%) for assorted compounds
experimentalEndpoint: Growth of Cells (%)

>>> print(df.to_string())
                            molecularstring  unittag  resultnumber
0  Fc1ccc(CNc2nc(C(F)(F)F)nc3c2sc(=S)n3-c2ccccc2)cc1        %        125.43
1   CCNc1nc(C(F)(F)F)nc2c1sc(=S)n2-c1ccccc1        %        106.83
2  FC(F)(F)c1nc(Cl)c2sc(=S)n(-c3ccccc3)c2n1        %         21.84
3  O=c1[nH]c(C(F)(F)F)nc2c1sc(=S)n2-c1ccccc1        %         65.01

====

System: A549/ATCC
experimentalDetails: NCI-60 screen, Non-Small Cell Lung Cancer A549/ATCC
Assay type: cell-based, human
conditionParameters: 10^−5 M one dose
experimentalEndpoint: Growth of Cells (%)

                            molecularstring  resultnumber
0  FC(F)(F)c1nc(Cl)c2sc(=S)n(-c3ccccc3)c2n1         91.16
1  O=c1[nH]c(C(F)(F)F)nc2c1sc(=S)n2-c1ccccc1        103.88
2   CCNc1nc(C(F)(F)F)nc2c1sc(=S)n2-c1ccccc1         74.36
3  Fc1ccc(CNc2nc(C(F)(F)F)nc3c2sc(=S)n3-c2ccccc2)cc1         98.32

====

melting point for assorted compounds
experimentalEndpoint: melting point

>>> df
                            molecularstring  experimentalendpoint         result
0    CNc1nc(C(F)(F)F)nc2c1sc(=S)n2-c1ccccc1         melting point  197 to 198 °C
1  O=c1[nH]c(C(F)(F)F)nc2c1sc(=S)n2-c1ccc(F)cc1         melting point  259 to 260 °C
2  O=c1[nH]c(C(F)(F)F)nc2c1sc(=S)n2-c1ccccc1F         melting point  211 to 212 °C
3         CCn1c(=S)sc2c(Cl)nc(C(F)(F)F)nc21         melting point    66 to 67 °C

====

Growth of Cells (%) for assorted compounds
Test system: ACHN
experimentalDetails: NCI-60 screen, Renal Cancer ACHN
Format: cell-based, human
conditionParameters: 10^−5 M one dose
experimentalEndpoint: Growth of Cells (%)

In [3]: df
Out[3]:
                            molecularstring  unittag  resultnumber
0  Fc1ccc(CNc2nc(C(F)(F)F)nc3c2sc(=S)n3-c2ccccc2)cc1        %         99.14
1  O=c1[nH]c(C(F)(F)F)nc2c1sc(=S)n2-c1ccccc1        %        110.42
2  FC(F)(F)c1nc(Cl)c2sc(=S)n(-c3ccccc3)c2n1        %         27.40
3   CCNc1nc(C(F)(F)F)nc2c1sc(=S)n2-c1ccccc1        %         93.13

====

experimentalDetails: MTT cell viability assay, HaCaT
Type: cell-based, human
conditionParameters: HaCaT keratinocytes (normal cell line), HaCaT human keratinocytes, 50 µM
experimentalEndpoint: viability at 72 h, 50 µM (%)

>>> df
                            molecularstring      experimentalendpoint  unittag  resultnumber
0  FC(F)(F)c1nc(Cl)c2sc(=S)n(-c3ccccc3)c2n1  viability at 72 h, 50 µM        %            20

====

Test system: A375
experimentalDetails: MTT cell viability assay, A375
Format: cell-based, human
conditionParameters: A375, MTT, 72 h, mean ± SD
Procedure: Twelve compounds (2a-e, 3a-d and 4a-c) at a concentration range of 50–5000 μM were tested for their antiproliferative potential against four human cancer cell lines (A375—melanotic melanoma, C32—amelanotic melanoma, DU145—prostate cancer androgen-independent, MCF-7/WT—breast adenocarcinoma) and two normal cell lines: Chinese Hamster Ovary (CHO-K1) and immortalized human keratinocytes from histologically normal skin (HaCaT). […] Cell viability was determined using the MTT colorimetric assay. […]
experimentalEndpoint: IC50 (µM)

>>> df
                                   compound  experimentalendpoint  resultnumber
0  Fc1cccc(-n2c(=S)sc3c(Cl)nc(C(F)(F)F)nc32)c1 [Compound 3d]                  IC50           104

====

Test system: CAKI-1
experimentalDetails: NCI-60 screen, Renal Cancer CAKI-1
Format: cell-based, human
conditionParameters: CAKI-1, 10^−5 M one dose
experimentalEndpoint: Growth of Cells (%)

                            molecularstring  target  experimentalendpoint  resultnumber
0  O=c1[nH]c(C(F)(F)F)nc2c1sc(=S)n2-c1ccccc1  CAKI-1   Growth of Cells (%)        124.11
1  FC(F)(F)c1nc(Cl)c2sc(=S)n(-c3ccccc3)c2n1  CAKI-1   Growth of Cells (%)         81.74
2   CCNc1nc(C(F)(F)F)nc2c1sc(=S)n2-c1ccccc1  CAKI-1   Growth of Cells (%)         93.63
3  Fc1ccc(CNc2nc(C(F)(F)F)nc3c2sc(=S)n3-c2ccccc2)cc1  CAKI-1   Growth of Cells (%)         94.38

====

Growth of Cells (%) for assorted molecules
System: SF-268
experimentalDetails: NCI-60 screen, CNS Cancer SF-268
Assay type: cell-based, human
conditionParameters: SF-268, 10^−5 M one dose
experimentalEndpoint: Growth of Cells (%)

>>> df
                                   molecule  resultnumber
0  O=c1[nH]c(C(F)(F)F)nc2c1sc(=S)n2-c1ccccc1 [Compound 2b]        101.77
1  Fc1ccc(CNc2nc(C(F)(F)F)nc3c2sc(=S)n3-c2ccccc2)cc1 [Compound 4c]        109.32
2  FC(F)(F)c1nc(Cl)c2sc(=S)n(-c3ccccc3)c2n1 [Compound 3b]         84.73
3  CCNc1nc(C(F)(F)F)nc2c1sc(=S)n2-c1ccccc1 [Compound 4b]        104.72

====

Growth of Cells (%) for assorted molecules
System: SF-539
experimentalDetails: NCI-60 screen, CNS Cancer SF-539
Format: cell-based, human
conditionParameters: SF-539, 10^−5 M one dose
experimentalEndpoint: Growth of Cells (%)

>>> df
                                   molecule  experimentalendpoint  resultnumber
0  CCNc1nc(C(F)(F)F)nc2c1sc(=S)n2-c1ccccc1 [Compound 4b]   Growth of Cells (%)        100.98
1  O=c1[nH]c(C(F)(F)F)nc2c1sc(=S)n2-c1ccccc1 [Compound 2b]   Growth of Cells (%)        114.10
2  FC(F)(F)c1nc(Cl)c2sc(=S)n(-c3ccccc3)c2n1 [Compound 3b]   Growth of Cells (%)         75.80
3  Fc1ccc(CNc2nc(C(F)(F)F)nc3c2sc(=S)n3-c2ccccc2)cc1 [Compound 4c]   Growth of Cells (%)        102.28

====

Growth of Cells (%) for assorted compounds
Tested on: K-562
experimentalDetails: NCI-60 screen, Leukemia K-562
Type: cell-based, human
conditionParameters: K-562, 10^−5 M one dose
experimentalEndpoint: Growth of Cells (%)

>>> df
                            molecularstring  target  resultnumber
0  FC(F)(F)c1nc(Cl)c2sc(=S)n(-c3ccccc3)c2n1   K-562         33.07
1   CCNc1nc(C(F)(F)F)nc2c1sc(=S)n2-c1ccccc1   K-562        102.59
2  O=c1[nH]c(C(F)(F)F)nc2c1sc(=S)n2-c1ccccc1   K-562        115.47
3  Fc1ccc(CNc2nc(C(F)(F)F)nc3c2sc(=S)n3-c2ccccc2)cc1   K-562        107.45
